This section presents compounds with their documented IC50 values.
tested system: Rat recombinant PDE10a (rPDE10a) (Rattus norvegicus (Rat))
Sequence (Q9QYJ6 whole entry): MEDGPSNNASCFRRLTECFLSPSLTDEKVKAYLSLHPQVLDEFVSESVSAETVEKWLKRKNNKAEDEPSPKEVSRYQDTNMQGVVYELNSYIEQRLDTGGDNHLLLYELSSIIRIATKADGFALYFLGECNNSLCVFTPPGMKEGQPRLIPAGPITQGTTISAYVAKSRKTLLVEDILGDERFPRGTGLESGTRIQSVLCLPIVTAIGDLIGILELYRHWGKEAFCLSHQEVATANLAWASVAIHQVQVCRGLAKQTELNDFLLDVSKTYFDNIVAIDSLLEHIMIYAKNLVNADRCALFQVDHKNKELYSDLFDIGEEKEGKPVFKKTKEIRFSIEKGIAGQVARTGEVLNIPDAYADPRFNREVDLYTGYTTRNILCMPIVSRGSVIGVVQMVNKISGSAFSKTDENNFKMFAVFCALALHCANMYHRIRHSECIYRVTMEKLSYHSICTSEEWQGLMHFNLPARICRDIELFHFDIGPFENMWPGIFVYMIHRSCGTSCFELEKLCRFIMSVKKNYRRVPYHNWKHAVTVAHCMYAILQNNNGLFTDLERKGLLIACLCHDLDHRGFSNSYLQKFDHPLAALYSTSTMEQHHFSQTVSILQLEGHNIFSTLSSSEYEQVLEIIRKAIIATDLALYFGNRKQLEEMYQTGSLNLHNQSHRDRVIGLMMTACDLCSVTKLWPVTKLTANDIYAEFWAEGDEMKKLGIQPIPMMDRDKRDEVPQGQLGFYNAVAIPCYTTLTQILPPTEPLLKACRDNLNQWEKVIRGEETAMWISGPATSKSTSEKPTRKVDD
assay remarks: In vitro assay PDE10a: rat recombinant PDE10a SPA with 3H-cAMP substrate, IC50
condition description: 60 nM cAMP, read-out: rPDE10a2 IC50
Protocol: In Vitro Assay PDE10a Rat recombinant PDE10a (rPDE10a) was expressed in Sf9 cells using a recombinant rPDE10a baculovirus construct. Cells were harvested after 48 h of infection and the rPDE10a protein was purified by metal chelate chromatography on Ni-sepharose 6FF. Tested compounds were dissolved and diluted in 100% DMSO to a concentration 100 fold of the final concentration in the assay. […] The reaction was incubated for 60 min at rt. […]
Where a name gives a salt, the structure may show the parent alone.

// O=C(O)c1cccc(-c2c(C#Cc3ccc4ccccc4n3)nc3c(N4CCOCC4)ccnn23)c1 [Cpd 88, trifluoroacetic acid salt] : IC50 value = < 1 nM

// COc1cccc(C#Cc2nc3c(N4CCOCC4)ccnn3c2-c2ccc(C(=O)O)cc2)n1 : IC50 value = < 1 nM

// O=C(O)c1ccc(-c2c(C#Cc3ccc4ccccc4n3)nc3c(N4CCOCC4)ccnn23)s1 : IC50 value = < 1 nM

// O=C(O)c1ccc(-c2c(CCc3ccc4ccccc4n3)nc3c(N4CCOCC4)ccnn23)s1 : IC50 value = < 1 nM

// C(#Cc1cn2nccc(N3CCOCC3)c2n1)c1ccc2ccccc2n1 : IC50 value = < 1 nM

// COc1cc(-c2c(C#Cc3ccc4ccccc4n3)nc3c(N4CCOCC4)ccnn23)ccc1C(=O)O : IC50 value = < 1 nM

====

This section presents compounds with their documented pIC50 values.
tested system: Human recombinant PDE10A2 (Homo sapiens (Human), UniProt Q9Y233)
Sequence (Q9Y233 267-1055): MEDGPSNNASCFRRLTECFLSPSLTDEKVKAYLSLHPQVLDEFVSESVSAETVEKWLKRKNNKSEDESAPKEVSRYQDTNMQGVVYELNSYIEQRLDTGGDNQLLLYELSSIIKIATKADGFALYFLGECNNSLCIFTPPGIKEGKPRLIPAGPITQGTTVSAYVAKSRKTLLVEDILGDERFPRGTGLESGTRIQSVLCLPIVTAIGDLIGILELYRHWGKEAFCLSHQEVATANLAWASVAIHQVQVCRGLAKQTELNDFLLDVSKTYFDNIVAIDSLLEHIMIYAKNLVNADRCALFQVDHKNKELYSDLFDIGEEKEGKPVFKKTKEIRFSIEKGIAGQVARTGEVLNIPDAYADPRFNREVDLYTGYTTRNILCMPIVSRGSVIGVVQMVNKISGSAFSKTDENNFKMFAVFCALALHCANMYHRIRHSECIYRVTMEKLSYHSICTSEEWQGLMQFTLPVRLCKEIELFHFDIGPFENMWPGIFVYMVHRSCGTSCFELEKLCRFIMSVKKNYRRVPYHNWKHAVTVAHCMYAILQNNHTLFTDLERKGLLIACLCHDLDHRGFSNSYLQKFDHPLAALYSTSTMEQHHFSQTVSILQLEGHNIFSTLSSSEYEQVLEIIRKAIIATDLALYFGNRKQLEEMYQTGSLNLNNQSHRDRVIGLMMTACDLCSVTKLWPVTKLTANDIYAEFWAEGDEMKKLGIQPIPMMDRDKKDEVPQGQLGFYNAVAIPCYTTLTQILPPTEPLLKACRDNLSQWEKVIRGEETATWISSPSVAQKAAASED
assay remarks: In vitro hPDE10a: human recombinant PDE10A2 scintillation proximity assay, IC50
condition description: human recombinant PDE10A2, SPA, 60 nM cAMP; read-out: hPDE10a2 IC50
Where a name gives a salt, the structure may show the parent alone.
Please keep in mind that pIC50 is minus log10 of the molar concentration; only the number is needed.

O=C(O)c1cc(/C=C/c2cn3nc(Cl)cc(N4CCOCC4)c3n2)nc2ccccc12 [Cpd 126]
8.70

Record CS(=O)(=O)NC(=O)c1ccc(-c2c(CSc3ccc4ccccc4n3)nc3c(N4CCOCC4)ccnn23)cc1 [Cpd 120] ; system Human recombinant PDE10A2 (Homo sapiens (Human), UniProt Q9Y233); pIC50 = 8.52

Record O=c1ncn(-c2ccc(-c3c(/C=C/c4ccc5ccccc5n4)nc4c(N5CCOCC5)ccnn34)cn2)[nH]1 [Cpd 56, trifluoroacetic acid salt] ; system Human recombinant PDE10A2 (Homo sapiens (Human), UniProt Q9Y233); pIC50 = 8.40

Record O=c1ncn(-c2ccc(-c3c(/C=C/c4ccc5ccccc5n4)nc4c(N5CCOCC5)ccnn34)cc2F)[nH]1 [Cpd 158] ; system Human recombinant PDE10A2 (Homo sapiens (Human), UniProt Q9Y233); pIC50 = 8.30

====

This section presents compounds with their documented IC50 values.
tested system: Human recombinant PDE10A2 (Homo sapiens (Human), UniProt Q9Y233)
assay remarks: In vitro hPDE10a: human recombinant PDE10A2 scintillation proximity assay, IC50
condition description: human recombinant PDE10A2, SPA, 60 nM cAMP; read-out: hPDE10a2 IC50
Structures can show the parent of a compound that is named as a salt.
Output spec: scalar in nM, unitless text.

Some solved entries appear below for comparison.
O=C(O)CNC(=O)c1ccc(-c2c(CCc3ccc4ccccc4n3)nc3c(N4CCOCC4)ccnn23)cc1 [Cpd 68, trifluoroacetic acid salt]
5
O=C(O)C1CCN(c2ccc(-c3c([C@H]4C[C@@H](c5ccc6ccccc6n5)C4)nc4c(N5CCOCC5)ccnn34)cc2)CC1
93
C(=C\c1nc2c(N3CCOCC3)ccnn2c1-c1ccc(Sc2cnn[nH]2)nc1)/c1ccc2ccccc2n1
8
O=C(O)CCC(=O)Nc1ccc(-c2c(/C=C/c3ccc4ccccc4n3)nc3c(N4CCOCC4)ccnn23)cc1
9
N#Cc1ccc(C#Cc2nc3c(N4CCOCC4)ccnn3c2-c2ccc(C(=O)O)cc2)nc1
22

// O=C(O)c1cccc2nc(/C=C/c3nc4c(N5CCOCC5)ccnn4c3-c3cccnc3)ccc12 [Cpd 137, sodium salt] : IC50 value = 3

// Oc1ccc(-c2c(/C=C/c3ccc4ccccc4n3)nc3c(N4CCOCC4)ccnn23)cn1 : IC50 value = 6

// CC(C)(CC(=O)O)c1ccc(-c2c([C@H]3C[C@H](c4ccc5ccccc5n4)C3)nc3c(N4CCOCC4)ccnn23)cc1 : IC50 value = 1

// CS(=O)(=O)NC(=O)c1cccc2nc(/C=C/c3nc4c(N5CCOCC5)cc(Cl)nn4c3-c3cccnc3)ccc12 : IC50 value = 58

// OC(c1ccc(-c2c(CCc3ccc4ccccc4n3)nc3c(N4CCOCC4)ccnn23)cc1)(C(F)(F)F)C(F)(F)F : IC50 value = 41

// CN1CCN(c2ccc(-c3c(CN(C)c4ccc5ccccc5n4)nc4c(N5CCOCC5)ccnn34)cn2)CC1 [Cpd 15, trifluoroacetic acid salt] : IC50 value = 676

// CC(C)[C@H](NC(=O)c1ccc(-c2c(CCc3ccc4ccccc4n3)nc3c(N4CCOCC4)ccnn23)cc1)C(=O)O : IC50 value = 4
